Assay: protein stability index of a GFP-peptide fusion (yeast GPS) (PSI 1-4); higher = more stable; sorted into four equal gates, so the index is relative within each strain
Settings: doa10∆
QUANTITY NAME: protein stability index

Some entries whose results are on file:
Recorded protein stability index (sequence KVIEQPITSETAMKKVE [RPL25] ): 3.02

Recorded protein stability index (sequence PRGVLLYGPPGTGKTML [RPT3] ): 3.07

Recorded protein stability index (sequence KVEYKIVHDDPASDDIL [ITC1] ): 3.05

Further cases:
Recorded protein stability index (sequence VTIIEPKEEEPILAPSV [RPS3] ): 3.09

###

Assay: protein stability index of a GFP-peptide fusion (yeast GPS) (PSI 1-4); higher = more stable; sorted into four equal gates, so the index is relative within each strain
Settings: ubr1∆
Quick reference: protein stability index of the listed items.
The response must contain the number and no unit.

Some entries whose results are on file:
Recorded protein stability index (sequence GIVDELAYAVLGIALIA [RPN1] ): 1.17

Recorded protein stability index (sequence NWRGREHWKVRNFKKAN [BRN1] ): 3.49

# input for lookup
Recorded protein stability index (sequence KKYTQNNPLLLIVDVKQ [RPN8] ): 1.16

Taken from the supplement of paper PMC9732359.
